What hAMYR3 EC50 (nM); cAMP induction was measured for each of the following?
tested-on: T1, human amylin receptor 3 (hAMYR3), hCTR2 co-expressed with human receptor activity modifying protein 3 (hRAMP3) (human, UniProt P30988 25-474; O60896 24-148)
T1 sequence (looked up) 1: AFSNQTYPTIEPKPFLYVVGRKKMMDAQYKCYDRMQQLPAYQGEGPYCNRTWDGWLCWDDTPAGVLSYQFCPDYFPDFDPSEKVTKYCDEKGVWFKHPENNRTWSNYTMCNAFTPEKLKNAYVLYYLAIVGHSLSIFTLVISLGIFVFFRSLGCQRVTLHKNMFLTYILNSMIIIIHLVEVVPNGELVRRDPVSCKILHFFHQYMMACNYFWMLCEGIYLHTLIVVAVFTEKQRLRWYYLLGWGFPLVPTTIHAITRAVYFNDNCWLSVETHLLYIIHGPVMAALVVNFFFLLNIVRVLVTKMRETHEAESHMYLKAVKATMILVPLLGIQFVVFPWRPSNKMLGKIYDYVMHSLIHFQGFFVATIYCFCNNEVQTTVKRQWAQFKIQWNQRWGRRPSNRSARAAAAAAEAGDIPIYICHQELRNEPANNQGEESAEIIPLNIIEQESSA
T1 sequence (looked up) 2: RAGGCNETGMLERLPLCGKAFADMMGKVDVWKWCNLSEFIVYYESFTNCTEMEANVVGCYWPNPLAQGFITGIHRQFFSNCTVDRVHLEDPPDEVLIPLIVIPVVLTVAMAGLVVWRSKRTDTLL
assay-protocol: cell-based or functional assay
*1 amine or outer side, *2 acyl side, *3 side chain or, on linkers, in order; H or OH if unused. Bridges are numbered along the chain shown (N, C = ends). [ ]: non-standard residue; d: D form. The star is where a group is joined. C20 diacid = O=C(O)CCCCCCCCCCCCCCCCCCC(=O)*; γGlu = O=C(O)[C@H](CCC(=O)[*:2])N[*:1]; Hyp = O=C(O)[C@@H]1C[C@@H](O)CN1; NMeI = CC[C@H](C)[C@H](NC)C(=O)O; Sar = CNCC(=O)O
Your answer is read as nM, so omit the unit and give the number.

Query: Complete the entry with hAMYR3 EC50 (nM); cAMP induction for {C20 diacid}-[γGlu]RCNTATCATQRLAHFLQRSSF[Sar]A[NMeI]LSSTEVGSNT[Hyp]-NH2 (disulfide 3-8) [[19CD]-isoGlu-R-C( )-NTAT-C( )-ATQRLAHFLQRSSF-Gly(Me)-A-Ile(Me)-LSSTEVGSNT-Hyp-NH2 (Compd. 58)]
Reply: 0.1

Query: Fill in reported hAMYR3 EC50 (nM); cAMP induction for this entry: {C20 diacid}-[γGlu]RCGTATCATERLAHFLTRSSF[Sar]A[NMeI]LSSTEVGSST[Hyp]-NH2 (disulfide 3-8) [[19CD]-isoGlu-R-C( )-GTAT-C( )-ATERLAHFLTRSSF-Gly(Me)-A-Ile(Me)-LSSTEVGSST-Hyp-NH2 (Compd. 9)]
Reply: 0.29

Query: Look up hAMYR3 EC50 (nM); cAMP induction of {C20 diacid-γGlu}-RCNTATCATQRLAHFLHRSSF[Sar]A[NMeI]LSSTEVGSETP-NH2 (disulfide 2-7) [[19CD]-isoGlu-R-C( )-NTAT-C( )-ATQRLAHFLHRSSF-Gly(Me)-A-Ile(Me)-LSSTEVGSETP-NH2 (Compd. 2)] and report it.
Reply: 0.12
